Provide the reported pIC50 of each item.
target: EGFR exon 20 insertion mutant kinase A763_Y764insFHEA (Homo sapiens, UniProt P00533, INS763FHEA); assay: Kinase activity assay (33P-ATP filter-binding), EGFR exon 20 insertion mutant kinase A763_Y764insFHEA; details: ATP Km concentration; 10 concentrations
Sequence (P00533 with tags, fused parts or gaps INS763FHEA limits assumed): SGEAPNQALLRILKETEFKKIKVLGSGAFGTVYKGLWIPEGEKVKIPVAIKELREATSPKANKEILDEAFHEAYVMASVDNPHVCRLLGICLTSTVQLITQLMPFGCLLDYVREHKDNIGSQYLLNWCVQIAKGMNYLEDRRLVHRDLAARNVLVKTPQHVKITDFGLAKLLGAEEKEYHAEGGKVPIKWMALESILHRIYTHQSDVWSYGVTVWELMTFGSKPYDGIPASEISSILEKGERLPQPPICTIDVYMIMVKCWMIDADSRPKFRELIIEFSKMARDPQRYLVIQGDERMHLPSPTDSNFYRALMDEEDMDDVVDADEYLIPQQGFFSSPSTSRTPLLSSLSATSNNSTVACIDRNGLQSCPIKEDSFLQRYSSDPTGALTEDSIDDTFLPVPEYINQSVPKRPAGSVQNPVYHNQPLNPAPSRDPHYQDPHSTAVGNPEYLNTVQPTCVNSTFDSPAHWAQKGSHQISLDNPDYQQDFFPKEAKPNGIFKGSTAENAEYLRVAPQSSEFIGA
Value format note: pIC50 is -log10 of concentration (mol/L); just state the number.

Query: Request the reported pIC50 associated with C=CC(=O)Nc1cc(Nc2ncc(C(=O)OC(C)C)c(-n3cc4c(n3)-c3ccccc3C4)n2)c(OC)cc1N(C)CCN(C)C [Example 12]
Response: 8.64

Query: Request the reported pIC50 associated with C=CC(=O)Nc1cc(Nc2ncc(C(=O)OC(C)C)c(-c3cn(C)c4ccccc34)n2)c(OC)cc1N(C)CCN(C)C [TAK788, reference compound]
Response: 8.38

Query: Request the reported pIC50 associated with C=CC(=O)Nc1cc(Nc2ncc(C(=O)OC(C)C)c(-n3ncc4c3Cc3ccccc3-4)n2)c(OC)cc1N(C)CCN(C)C [Example 6]
Response: 8.05

Query: Request the reported pIC50 associated with [2H]C([2H])([2H])n1cc(-c2nc(Nc3cc(NC(=O)C=C)c(N(C)CCN(C)C)nc3OCC(F)(F)F)ncc2CO)c2ccccc21 [Example 10]
Response: 7.44

Query: Request the reported pIC50 associated with C=CC(=O)Nc1cc(Nc2nccc(-n3ncc4c3-c3ccccc3C4)n2)c(OC)cc1N(C)CCN(C)C [Example 13]
Response: 7.21

Query: Request the reported pIC50 associated with C=CC(=O)Nc1cc(Nc2ncc(C(=O)OC(C)C)c(-c3nn(C)c4c3Cc3ccccc3-4)n2)c(OC)cc1N(C)CCN(C)C [Example 14]
Response: 7.35

Query: Request the reported pIC50 associated with C=CC(=O)Nc1cc(Nc2ncc(-c3nnc(C)o3)c(-c3cn(C4CC4)c4ccccc34)n2)c(OCC(F)(F)F)nc1N(C)CCN(C)C [Example 4]
Response: 7.82

Query: Request the reported pIC50 associated with C=CC(=O)Nc1cc(Nc2ncc(C(=O)OC(C)C)c(-n3cc4c(n3)Cc3ccccc3-4)n2)c(OC)cc1N(C)CCN(C)C [Example 7]
Response: 5.25

Query: Request the reported pIC50 associated with [2H]C([2H])([2H])n1cc(-c2nc(Nc3cc(NC(=O)C=C)c(N(C)CCN(C)C)nc3OCC(F)(F)F)ncc2-c2nnc(C)o2)c2ccccc21 [Example 3]
Response: 8.22

Query: Request the reported pIC50 associated with C=CC(=O)Nc1cc(Nc2ncc(C(=O)N(C)S(C)(=O)=O)c(-c3cn(C)c4ccccc34)n2)c(OC)cc1N(C)CCN(C)C [Example 9]
Response: 7.98

###

target: Ba/F3-FL-EGFR-H773-V774 ins NPH (Homo sapiens, UniProt P00533, DUP771-773, cells depend on it); assay: Cell proliferation inhibitory activity test (CellTiter-Glo), EGFR exon 20 insertion mutation; format: cell-based; conditions: 72 h; class symbols; read-out: Ba/F3-FL-EGFR IC50 (nM) H773-V774ins NPH
Sequence (P00533 with tags, fused parts or gaps DUP771-773): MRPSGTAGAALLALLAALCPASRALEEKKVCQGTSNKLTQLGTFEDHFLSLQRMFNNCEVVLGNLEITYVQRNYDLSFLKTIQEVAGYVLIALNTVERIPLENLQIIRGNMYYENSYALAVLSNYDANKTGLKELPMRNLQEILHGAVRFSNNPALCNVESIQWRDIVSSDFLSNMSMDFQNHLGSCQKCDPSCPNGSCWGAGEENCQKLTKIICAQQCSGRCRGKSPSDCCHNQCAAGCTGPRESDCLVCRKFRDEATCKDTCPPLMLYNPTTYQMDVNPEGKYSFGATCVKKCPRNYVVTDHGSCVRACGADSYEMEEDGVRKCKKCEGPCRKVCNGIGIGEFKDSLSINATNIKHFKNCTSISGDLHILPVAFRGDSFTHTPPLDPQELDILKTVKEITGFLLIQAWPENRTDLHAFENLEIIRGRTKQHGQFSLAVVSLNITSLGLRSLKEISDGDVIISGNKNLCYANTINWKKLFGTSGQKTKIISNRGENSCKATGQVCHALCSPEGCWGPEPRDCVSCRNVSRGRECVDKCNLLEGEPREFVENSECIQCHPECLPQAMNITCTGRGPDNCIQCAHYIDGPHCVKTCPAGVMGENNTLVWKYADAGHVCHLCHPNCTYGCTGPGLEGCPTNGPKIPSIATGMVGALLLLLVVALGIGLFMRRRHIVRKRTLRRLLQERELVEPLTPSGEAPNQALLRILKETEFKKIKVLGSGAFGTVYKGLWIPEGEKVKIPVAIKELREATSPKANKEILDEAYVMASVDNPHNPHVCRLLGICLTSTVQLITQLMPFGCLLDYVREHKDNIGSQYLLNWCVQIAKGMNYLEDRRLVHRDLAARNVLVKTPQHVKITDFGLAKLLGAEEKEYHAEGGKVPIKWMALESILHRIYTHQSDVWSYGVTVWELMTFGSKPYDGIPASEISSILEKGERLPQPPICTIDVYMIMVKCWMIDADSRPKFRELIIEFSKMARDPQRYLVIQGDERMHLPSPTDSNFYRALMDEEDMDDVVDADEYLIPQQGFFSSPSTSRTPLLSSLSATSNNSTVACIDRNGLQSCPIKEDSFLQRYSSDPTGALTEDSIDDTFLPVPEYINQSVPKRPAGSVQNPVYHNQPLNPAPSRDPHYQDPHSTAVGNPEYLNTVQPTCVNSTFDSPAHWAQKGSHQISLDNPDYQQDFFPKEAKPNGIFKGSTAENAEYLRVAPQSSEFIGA
measurementType: GI50

Query: Request the reported GI50 associated with C=CC(=O)Nc1cc(Nc2ncc(-c3nnc(CC)o3)c(-c3cn(C)c4ccccc34)n2)c(OC)cc1N(C)CCN(C)C
Response: < 5 nM

Query: Request the reported GI50 associated with C=CC(=O)Nc1cc(Nc2ncc(-c3nnc(C)o3)c(-c3cn(C)c4ccccc34)n2)c(OC)cc1N(C)C1[C@H]2CN(C)C[C@@H]12 (stereo partly drawn)
Response: < 5 nM

Query: Request the reported GI50 associated with C=CC(=O)Nc1cc(Nc2ncc(-c3nnc(C(F)F)s3)c(-c3cn(C)c4ccccc34)n2)c(OC)cc1N(C)CCN(C)C
Response: 5 to 50 nM

Data origin: patent US12509441B2
